- targetDesc: Human recombinant PDE10A (hPDE10A) (Homo sapiens, UniProt Q9Y233)
- Construct: His tag (inferred from metal chelate purification); made in house; host or cells: Sf9 insect cells (baculovirus)
- Sequence (Q9Y233 267-1055): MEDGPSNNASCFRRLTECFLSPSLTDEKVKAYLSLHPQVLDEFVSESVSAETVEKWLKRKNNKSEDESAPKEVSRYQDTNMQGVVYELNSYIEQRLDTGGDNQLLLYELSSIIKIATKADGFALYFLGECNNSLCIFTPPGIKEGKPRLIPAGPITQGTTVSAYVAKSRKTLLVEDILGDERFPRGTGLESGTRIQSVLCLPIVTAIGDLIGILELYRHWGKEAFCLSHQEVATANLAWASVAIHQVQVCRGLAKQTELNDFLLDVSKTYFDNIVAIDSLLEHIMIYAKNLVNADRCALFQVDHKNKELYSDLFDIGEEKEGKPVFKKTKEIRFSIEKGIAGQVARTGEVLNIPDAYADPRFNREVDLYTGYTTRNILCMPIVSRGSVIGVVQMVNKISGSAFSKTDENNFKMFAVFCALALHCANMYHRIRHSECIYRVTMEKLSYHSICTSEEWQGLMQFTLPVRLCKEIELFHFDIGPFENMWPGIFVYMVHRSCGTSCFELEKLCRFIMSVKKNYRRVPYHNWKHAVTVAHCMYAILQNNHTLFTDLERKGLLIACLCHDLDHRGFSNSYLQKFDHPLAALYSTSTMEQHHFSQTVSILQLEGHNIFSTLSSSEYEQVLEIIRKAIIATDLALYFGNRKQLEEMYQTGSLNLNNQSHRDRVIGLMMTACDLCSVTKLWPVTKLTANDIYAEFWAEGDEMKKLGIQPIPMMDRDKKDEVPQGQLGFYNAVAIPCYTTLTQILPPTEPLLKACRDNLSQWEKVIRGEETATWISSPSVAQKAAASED
- method: In vitro assay PDE10A, human clone (SPA, 3H-cAMP hydrolysis)
- Assay type: biochemical
- conditionSummary: human clone by default (no (r) mark); read-out: hPDE10A2 or rPDE10A2 Emax
- Procedure: Rat recombinant PDE10A (rPDE10A2) was expressed in Sf9 cells using a recombinant rPDE10A baculovirus construct. […] Tested compounds were dissolved and diluted in 100% DMSO to a concentration 100 fold of the final concentration in the assay. […] After sedimentation of the beads during 30 minutes the radioactivity was measured in a Perkin Elmer Topcount scintillation counter and results were expressed as cpm. […]
endpoint: Emax

compoundstring=COc1c(C(=O)N2CC[C@@H](C)[C@H](c3cc(C(F)F)nc4ncnn34)C2)cccc1C(F)(F)F targetdesc="Human recombinant PDE10A (hPDE10A) (Homo sapiens, UniProt Q9Y233)" valueobserved=77%
compoundstring=O=C(c1ccc2cccn2c1)N1[C@H]2CC[C@H](c3cc(C(F)F)nc4ncnn34)[C@@H]1CC2 targetdesc="Human recombinant PDE10A (hPDE10A) (Homo sapiens, UniProt Q9Y233)" valueobserved=95%
compoundstring=C[C@@H]1CCN(C(=O)c2ccc3c(ccn3C)c2)C[C@H]1c1cc(C(F)F)nc2ncnn12 targetdesc="Human recombinant PDE10A (hPDE10A) (Homo sapiens, UniProt Q9Y233)" valueobserved=100%
compoundstring=COc1ccc(C(=O)N2[C@H]3CC[C@H](c4cc(C(F)F)nc5ncnn45)[C@@H]2CC3)cc1Cl targetdesc="Human recombinant PDE10A (hPDE10A) (Homo sapiens, UniProt Q9Y233)" valueobserved=97%
compoundstring=COCc1cc(C(=O)N2CC[C@@H](C)[C@H](c3cc(C(F)F)nc4ncnn34)C2)cc(C)n1 targetdesc="Human recombinant PDE10A (hPDE10A) (Homo sapiens, UniProt Q9Y233)" valueobserved=93%
compoundstring=Cc1cc([C@@H]2CN(C(=O)c3cc(Cl)ncc3Cl)CC[C@H]2C)n2ncnc2n1 targetdesc="Human recombinant PDE10A (hPDE10A) (Homo sapiens, UniProt Q9Y233)" valueobserved=95%
compoundstring=C[C@@H]1CCN(C(=O)c2cnc3ccccc3c2)C[C@H]1c1cc(C(F)F)nc2ncnn12 targetdesc="Human recombinant PDE10A (hPDE10A) (Homo sapiens, UniProt Q9Y233)" valueobserved=100%
compoundstring=Cc1cc(C(=O)N2[C@H]3CC[C@H](c4cc(C(F)F)nc5ncnn45)[C@@H]2CC3)cc(C(F)F)n1 targetdesc="Human recombinant PDE10A (hPDE10A) (Homo sapiens, UniProt Q9Y233)" valueobserved=81%
compoundstring=C[C@@H]1CCN(C(=O)c2cc(C(C)(C)C)cc(C(C)(C)C)c2)C[C@H]1c1cc(C(F)F)nc2ncnn12 targetdesc="Human recombinant PDE10A (hPDE10A) (Homo sapiens, UniProt Q9Y233)" valueobserved=92%
compoundstring=Cn1ccc2cc(C(=O)N3[C@H]4CC[C@H](c5cc(C(F)F)nc6ncnn56)[C@@H]3CC4)ncc21 targetdesc="Human recombinant PDE10A (hPDE10A) (Homo sapiens, UniProt Q9Y233)" valueobserved=75%
compoundstring=CCn1ccc2cc(C(=O)N3[C@H]4CC[C@H](c5cc(C(F)F)nc6ncnn56)[C@@H]3CC4)ccc21 targetdesc="Human recombinant PDE10A (hPDE10A) (Homo sapiens, UniProt Q9Y233)" valueobserved=98%
compoundstring=Cc1nn(C)c2sc(C(=O)N3[C@H]4CC[C@H](c5cc(C(F)F)nc6ncnn56)[C@@H]3CC4)cc12 targetdesc="Human recombinant PDE10A (hPDE10A) (Homo sapiens, UniProt Q9Y233)" valueobserved=98%
compoundstring=Cc1cc([C@H]2CN(C(=O)c3cc(C)c(Cl)c(C)c3)CC[C@@H]2C)n2ncnc2n1 targetdesc="Human recombinant PDE10A (hPDE10A) (Homo sapiens, UniProt Q9Y233)" valueobserved=85%
compoundstring=O=C(c1ccc2ccccc2c1)N1[C@H]2CC[C@H](c3cc(C(F)F)nc4ncnn34)[C@@H]1CC2 targetdesc="Human recombinant PDE10A (hPDE10A) (Homo sapiens, UniProt Q9Y233)" valueobserved=99%

---

Catalogue of molecules with associated Emax
- targetDesc: Human recombinant PDE10A (hPDE10A) (Homo sapiens, UniProt Q9Y233)
- Construct: His tag (inferred from metal chelate purification); made in house; host or cells: Sf9 insect cells (baculovirus)
- method: In vitro assay PDE10A, human clone (SPA, 3H-cAMP hydrolysis)
- Assay type: biochemical
- conditionSummary: human clone (h), default; read-out: hPDE10A2 Emax
- Method: Rat recombinant PDE10A (rPDE10A2) was expressed in Sf9 cells using a recombinant rPDE10A baculovirus construct. […] Tested compounds were dissolved and diluted in 100% DMSO to a concentration 100 fold of the final concentration in the assay. […] After sedimentation of the beads during 30 minutes the radioactivity was measured in a Perkin Elmer Topcount scintillation counter and results were expressed as cpm. […]
endpoint: Emax

molecule=C[C@@H]1CCN(C(=O)c2ccc(F)c(OC(F)F)c2)C[C@H]1c1cc(C(F)F)nc2ncnn12 valueobserved=98%
molecule=C[C@@H]1CCN(C(=O)c2cc(C(C)(C)C)cc(C(C)(C)C)c2)C[C@H]1c1cc(C(F)F)nc2ncnn12 valueobserved=92%
molecule=Cc1cc(C(=O)N2CC[C@@H](C)[C@H](c3cc(C(F)F)nc4ncnn34)C2)c(F)c(C)n1 valueobserved=93%
molecule=COc1ccc(C(=O)N2CC[C@@H](C)[C@H](c3cc(C(F)F)nc4ncnn34)C2)nc1 valueobserved=79%
molecule=Cc1cc([C@@H]2CN(C(=O)c3cc(C)sc3C)CC[C@H]2C)n2ncnc2n1 valueobserved=98%
molecule=C[C@@H]1CCN(C(=O)c2ccc(OC(F)F)c(F)c2)C[C@H]1c1cc(C(F)F)nc2ncnn12 valueobserved=99%
molecule=C[C@@H]1CCN(C(=O)c2ccc(Cl)cn2)C[C@H]1c1cc(C(F)F)nc2ncnn12 valueobserved=79%
molecule=Cc1cnc(C(F)(F)F)cc1C(=O)N1CC[C@@H](C)[C@H](c2cc(C(F)F)nc3ncnn23)C1 valueobserved=76%
molecule=Cc1ncc(C(=O)N2CC[C@@H](C)[C@H](c3cc(C(F)F)nc4ncnn34)C2)cn1 valueobserved=54%
molecule=C[C@@H]1CCN(C(=O)c2ccnc(Cl)c2F)C[C@H]1c1cc(C(F)F)nc2ncnn12 valueobserved=83%
molecule=COc1ncc(C(=O)N2CC[C@@H](C)[C@H](c3cc(C(F)F)nc4ncnn34)C2)cc1C1CC1 valueobserved=98%
molecule=Cc1cc([C@@H]2CC[C@@H]3CC[C@H]2N3C(=O)c2ccc3ncsc3c2)n2ncnc2n1 valueobserved=65%
molecule=C[C@@H]1CCN(C(=O)c2cccc(N)n2)C[C@H]1c1cc(C(F)F)nc2ncnn12 valueobserved=72%
molecule="CCCC[C@@H]1CCN(C(=O)c2cc(C)nc(C)c2)C[C@H]1c1cc(C(F)F)nc2ncnn12 (single isomer, unassigned) [Compound 45]" valueobserved=24%
molecule="Cc1cc(C(=O)N2CCC[C@](C)(c3cc(C(F)F)nc4ncnn34)C2)cc(C)n1 (single isomer, unassigned)" valueobserved=10%

---

Catalogue of compounds with associated receptor occupancy at 10 mg/kg
- targetDesc: PDE2A (Rattus norvegicus, UniProt Q01062)
- Construct: Twenty μm-thick striatal sections were cut; from tissue; host or cells: rat brain, striatal sections
- Sequence (Q01062 whole entry): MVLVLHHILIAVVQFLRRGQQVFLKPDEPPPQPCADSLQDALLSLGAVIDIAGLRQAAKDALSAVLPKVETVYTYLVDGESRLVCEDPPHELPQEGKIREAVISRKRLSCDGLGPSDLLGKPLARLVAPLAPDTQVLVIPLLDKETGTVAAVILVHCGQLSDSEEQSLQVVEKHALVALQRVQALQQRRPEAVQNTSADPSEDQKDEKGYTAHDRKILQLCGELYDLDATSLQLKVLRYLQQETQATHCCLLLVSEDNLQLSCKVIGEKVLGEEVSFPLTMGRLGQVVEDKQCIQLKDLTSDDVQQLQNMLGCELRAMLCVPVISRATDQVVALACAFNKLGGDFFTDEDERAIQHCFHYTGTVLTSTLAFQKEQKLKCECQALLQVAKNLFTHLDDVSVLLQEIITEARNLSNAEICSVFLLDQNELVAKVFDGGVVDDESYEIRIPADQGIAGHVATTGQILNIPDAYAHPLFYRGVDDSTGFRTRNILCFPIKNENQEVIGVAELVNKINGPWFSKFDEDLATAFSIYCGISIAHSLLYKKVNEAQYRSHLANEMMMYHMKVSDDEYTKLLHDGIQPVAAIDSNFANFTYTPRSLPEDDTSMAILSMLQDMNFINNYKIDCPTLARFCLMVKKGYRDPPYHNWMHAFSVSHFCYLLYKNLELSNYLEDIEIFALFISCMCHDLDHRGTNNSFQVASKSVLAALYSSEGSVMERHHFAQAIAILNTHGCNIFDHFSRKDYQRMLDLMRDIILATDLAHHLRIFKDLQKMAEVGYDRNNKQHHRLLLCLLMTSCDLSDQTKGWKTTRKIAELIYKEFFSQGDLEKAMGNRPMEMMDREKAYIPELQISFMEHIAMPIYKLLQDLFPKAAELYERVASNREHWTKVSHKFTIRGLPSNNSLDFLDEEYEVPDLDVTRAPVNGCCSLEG
- method: PDE2 occupancy by test compounds, ex-vivo autoradiography with [3H]B-17a
- Format: in vivo, Male Wistar rats
- conditionSummary: po, 10 mg/kg, route PO (oral), percentage receptor occupancy, ex-vivo autoradiography, striatum
endpoint: receptor occupancy at 10 mg/kg

compound="COc1cc(C(=O)N2CC[C@@H](C)[C@H](c3cc(C(F)F)nc4ncnn34)C2)c(F)c(C)n1 [Compound 398]" targetdesc="PDE2A (Rattus norvegicus, UniProt Q01062)" endpoint="receptor occupancy at 10 mg/kg" valueobserved=29%
compound="COc1cc(C(=O)N2CC[C@@H](C)[C@H](c3cc(C(F)F)nc4ncnn34)C2)cc(C)n1 [Compound 110]" targetdesc="PDE2A (Rattus norvegicus, UniProt Q01062)" endpoint="receptor occupancy at 10 mg/kg" valueobserved=75%
compound="COc1ccc(C(=O)N2CC[C@@H](C)[C@H](c3cc(C(F)F)nc4ncnn34)C2)nc1 [Compound 66]" targetdesc="PDE2A (Rattus norvegicus, UniProt Q01062)" endpoint="receptor occupancy at 10 mg/kg" valueobserved=-14%
compound="Cc1cc(C(=O)N2CC[C@@H](C)[C@H](c3cc(C(F)F)nc4ncnn34)C2)cc(C)c1Cl [Compound 76]" targetdesc="PDE2A (Rattus norvegicus, UniProt Q01062)" endpoint="receptor occupancy at 10 mg/kg" valueobserved=17%
compound="Cc1nocc1C(=O)N1CC[C@@H](C)[C@H](c2cc(C(F)F)nc3ncnn23)C1 [Compound 184]" targetdesc="PDE2A (Rattus norvegicus, UniProt Q01062)" endpoint="receptor occupancy at 10 mg/kg" valueobserved=-2%
compound="COc1cc(C(=O)N2CC[C@@H](C)[C@H](c3cc(C(F)F)nc4ncnn34)C2)cc(C(C)C)n1 [Compound 122]" targetdesc="PDE2A (Rattus norvegicus, UniProt Q01062)" endpoint="receptor occupancy at 10 mg/kg" valueobserved=0%
compound="Cc1cc([C@@H]2CN(C(=O)c3cc(C)c(F)c(C)c3)CC[C@H]2C)n2ncnc2n1 [Compound 117]" targetdesc="PDE2A (Rattus norvegicus, UniProt Q01062)" endpoint="receptor occupancy at 10 mg/kg" valueobserved=8%
